biological target: Glutamate receptor ionotropic, AMPA (Rattus norvegicus, UniProt P19490+P19491+P19492+P19493)
observed.property: IC50 (µM)
Kindly answer with a numeric value in µM, unit omitted.

Inquiry: Form field: reported IC50 of "O=c1[nH]c2cc(Cl)c(-n3cnnc3)cc2c(=O)n1O"
Reply text: 4.6

Inquiry: Given the entry "O=c1[nH]c2cc(Cl)cc(Cl)c2c(=O)n1O" , report its measured IC50.
Reply text: 33

Inquiry: Quick check: IC50 of "O=c1[nH]c2cc(Cl)c([N+](=O)[O-])cc2c(=O)n1O" ?
Reply text: 29

* * *

observed.property: Ki (µM)
Report only the number, with the unit µM understood.

Inquiry: Enter reported Ki observed with Glutamate NMDA receptor for "O=C(O)c1cc(O)c2c(Cl)cc(Cl)cc2n1"
Reply text: 4.7

* * *

biological target: Glutamate receptor ionotropic, AMPA (Rattus norvegicus, UniProt P19490+P19491+P19492+P19493); test: Ability of compound to displace [3H]AMPA from Ionotropic glutamate receptor AMPA in rat cerebral cortex synaptic membranes
observed.property: Ki (µM)
Record the value in µM, omitting the unit from your answer.

Inquiry: Request the reported Ki associated with "O=c1[nH]c2cc(Cl)c(Cl)cc2c(=O)n1O"
Reply text: 12.5

Inquiry: Sample "O=c1[nH]c2cc(Cl)c([N+](=O)[O-])cc2c(=O)n1O" — what was its Ki?
Reply text: 1.3

Inquiry: For the molecule "O=c1[nH]c2cc(Cl)cc(Cl)c2c(=O)n1O" , what Ki is on record?
Reply text: 9.8

Inquiry: What Ki value was documented for this molecule, "O=c1[nH]c2cc(Cl)ccc2c(=O)n1O" ?
Reply text: 11.6

Inquiry: Entry under review: "Nc1cc2c(=O)n(O)c(=O)[nH]c2cc1Cl" . Reported Ki?
Reply text: 9.7

Inquiry: Item under review: "O=c1[nH]c2cc(Cl)c(-n3cnnc3)cc2c(=O)n1O" . Reported Ki?
Reply text: 0.25

* * *

pKi, Glutamate receptor ionotropic, NMDA 1 (Rattus norvegicus): measured values
Reminder that pKi is minus the log10 of a molar concentration.

Inquiry: For the compound "O=c1[nH]c2cc(Cl)cc(Cl)c2c(=O)n1-c1ccccc1" , what pKi is on record?
Reply text: 4.64

Inquiry: Entry "O=c1[nH]c2cc(Cl)c([N+](=O)[O-])cc2c(=O)n1O" has what pKi?
Reply text: 5.96
